Reference source for all entries: paper PMC10786891

I'd be grateful if you could share measured pKd for these entries.
Biological target: T1, EsCas13d, nuclease-dead (Eubacterium siraeum, UniProt B0MS50, R295A;H300A;R849A;H854A)
T1 sequence: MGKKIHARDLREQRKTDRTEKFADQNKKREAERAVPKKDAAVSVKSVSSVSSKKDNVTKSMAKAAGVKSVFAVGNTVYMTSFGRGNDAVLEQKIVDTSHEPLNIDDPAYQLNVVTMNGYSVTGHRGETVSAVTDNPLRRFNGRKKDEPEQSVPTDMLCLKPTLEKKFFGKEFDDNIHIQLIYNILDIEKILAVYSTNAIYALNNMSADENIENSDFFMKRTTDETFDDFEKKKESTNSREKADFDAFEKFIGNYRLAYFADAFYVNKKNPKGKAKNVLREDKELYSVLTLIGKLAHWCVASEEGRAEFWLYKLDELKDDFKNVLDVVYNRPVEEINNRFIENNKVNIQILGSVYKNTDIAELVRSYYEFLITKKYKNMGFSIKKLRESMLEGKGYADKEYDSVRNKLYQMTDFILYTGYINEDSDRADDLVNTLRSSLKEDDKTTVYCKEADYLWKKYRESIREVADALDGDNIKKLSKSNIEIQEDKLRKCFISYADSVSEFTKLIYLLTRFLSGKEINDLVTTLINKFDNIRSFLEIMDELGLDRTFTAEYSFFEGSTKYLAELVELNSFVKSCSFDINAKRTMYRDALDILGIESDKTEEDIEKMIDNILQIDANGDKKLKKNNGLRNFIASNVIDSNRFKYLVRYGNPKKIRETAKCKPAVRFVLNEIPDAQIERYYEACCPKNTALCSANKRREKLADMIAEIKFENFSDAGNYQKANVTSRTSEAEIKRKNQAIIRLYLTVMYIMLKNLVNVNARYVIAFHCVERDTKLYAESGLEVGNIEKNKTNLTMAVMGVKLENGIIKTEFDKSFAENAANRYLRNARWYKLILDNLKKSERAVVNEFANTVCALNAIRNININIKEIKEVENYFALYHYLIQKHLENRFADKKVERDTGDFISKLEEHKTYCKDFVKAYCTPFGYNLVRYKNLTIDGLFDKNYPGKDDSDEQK
Assay: crRNA (strand 1, pre-loaded); Mg2+; 40 mM Tris-HCl pH 7.5, 150 mM NaCl, 6 mM MgCl2, 1 mM DTT, 0.1% Tween-20, 0.2 mg/ml BSA; 25 C; 10 min per concentration, then washed
Conditions: tags: His6-TwinStrep-SUMO cleaved; N-terminal SNAP kept (SNAP-Surface 488); label: 3' end held by stalled T7 RNA polymerase
Numbers only, as −log10 of the molar value.

[[record]]
binder = "target 1 insG 3' of 21,insG 3' of 1 (mixed) RNA 1: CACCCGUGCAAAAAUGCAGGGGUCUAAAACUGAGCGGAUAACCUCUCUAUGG RNA 2: GGGAAUGGAUCCACAUCUACGAAUUCGUACCGAUAGAGAGGUUAUCCGCUCAGCCGAGAUCGGAAGAGCACACGU"
experimental_result = 7.18


Required: pKd, one value per binder below.
1. target 2 MT 5'PFS AAG 3'PFS CGG (mixed) RNA 1: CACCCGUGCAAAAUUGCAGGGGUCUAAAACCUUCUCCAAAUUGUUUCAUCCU RNA 2: GGGAAUGGAUCCACAUCUACGAAUUCAAGAGGAUGAAACAAUUUGGAGAAGCGGAGAUCGGAAGAGCACACGU
2. target 2 MT 5'PFS UCA 3'PFS CUG (mixed) RNA 1: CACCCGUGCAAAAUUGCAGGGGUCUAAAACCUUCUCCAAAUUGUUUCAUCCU RNA 2: GGGAAUGGAUCCACAUCUACGAAUUCUCAAGGAUGAAACAAUUUGGAGAAGCUGAGAUCGGAAGAGCACACGU
3. target 1 MT 5'PFS AAC 3'PFS UUC (mixed) RNA 1: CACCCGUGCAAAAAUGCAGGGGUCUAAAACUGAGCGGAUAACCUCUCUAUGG RNA 2: GGGAAUGGAUCCACAUCUACGAAUUCAACCCAUAGAGAGGUUAUCCGCUCAUUCAGAUCGGAAGAGCACACGU

Out:
1. 8.47
2. 8.14
3. 7.85
